Test system: SK-MEL-28 melanoma
Assay: NCI tumour cell line growth inhibition, 48 h; in the data active means GI50 below about 0.43 µM; inactive means the rest
Outcome codes: YES for active, NO for inactive

{"compound": "COc1ccc2c(c1)C(=O)c1c-2n(CCCN)c(=O)c2cc(OC)c(OC)cc12", "cat": "NO"}
{"compound": "O=S(=O)(Nc1ccc2ccccc2c1)c1ccc(-c2cnc(C3CC3)o2)cc1", "cat": "NO"}
{"compound": "CCOc1c(C#N)c2c(N)ncnc2n1C1OC(CO)C(O)C1O (centres undefined)", "cat": "NO"}
{"compound": "CCOC(=O)c1csc(NC(=O)COc2cccc(/C=C3\\CSc4ccccc4C3=O)c2)n1", "cat": "NO"}
{"compound": "CC[C@]12C=CCN3CC[C@@]4(c5ccc(OC)cc5N(C)[C@H]4[C@@](O)(C(=O)OC)[C@@H]1OC(=O)CCC(=O)N[C@H](Cc1c[nH]c4ccccc14)C(=O)OC)[C@@H]32", "cat": "NO"}
{"compound": "CCC[CH2][Sn]([CH2]CCC)([O]C(=O)c1cc(F)cc(F)c1)[O][Sn]([CH2]CCC)([CH2]CCC)[O]C(=O)c1cc(F)cc(F)c1", "cat": "NO"}
{"compound": "CN1CCN(Cc2ccc(NC(=O)c3cncc(C#Cc4cnn5ccccc45)c3)cc2C(F)(F)F)CC1", "cat": "NO"}
{"compound": "Cc1cc(NNC(=O)c2ccccc2O)nc(Nc2nc3ccccc3o2)n1", "cat": "NO"}
{"compound": "O=C(Nc1cccnc1)c1ccc2ccc3ccc(C(=O)Nc4cccnc4)nc3c2n1", "cat": "YES"}

----------
Tested on: KM12 colon
Test: NCI tumour cell line growth inhibition, 48 h
The reader will find reported TGI values listed item by item below.
metric-name: TGI

{"compound": "CC[C@@H](C)Nc1cc(C(=O)NC2CC3CCC(C2)N3c2ccc(C(=O)C3CC3)cn2)c(C)cc1C(N)=O (some centres undefined)", "metric-name": "TGI", "result-value": "0.0884 µM"}
{"compound": "COc1cc2c(c(OC(C)=O)c1OC(C)=O)-c1ccc(SC)c(=O)cc1C(NC(C)=O)CC2 (centres undefined)", "metric-name": "TGI", "result-value": "12 µM"}
{"compound": "Cc1ccc(C)n1-n1c(-c2ccccc2)n[nH]c1=O", "metric-name": "TGI", "result-value": "> 100 µM"}
{"compound": "C/C(CCn1[nH]c(=O)ccc1=O)=N\\Nc1ccc([N+](=O)[O-])cc1[N+](=O)[O-]", "metric-name": "TGI", "result-value": "> 100 µM"}
{"compound": "CC(=O)Nc1ccc2cc3[nH]c4cc(NC(C)=O)ccc4c3nc2c1", "metric-name": "TGI", "result-value": "> 100 µM"}
{"compound": "C[C@]12CC/C(=N\\OCCN3CCCCC3)C=C1CCC1C2CC[C@@]2(C)C1CC[C@]2(C)O (some centres undefined)", "metric-name": "TGI", "result-value": "26.6 µM"}
{"compound": "Cc1ccc(/C=C(\\C#N)c2ccccc2)cc1", "metric-name": "TGI", "result-value": "> 100 µM"}
{"compound": "O=C(O)Cn1c2c(c3c(O)cccc31)C(=O)c1ccccc1-2", "metric-name": "TGI", "result-value": "> 100 µM"}
{"compound": "CN(C)CCCNC(=O)c1cc(NC(=O)c2cc(NC(=O)[C@@H]3C[C@H]3C(=O)Nc3cc(C(=O)Nc4cc(C(=O)NCCCN(C)C)n(C)c4)n(C)c3)cn2C)cn1C", "metric-name": "TGI", "result-value": "> 100 µM"}
{"compound": "O=C(NN1C(=O)CSC12CCCC2)C(O)c1ccccc1 (centres undefined)", "metric-name": "TGI", "result-value": "> 100 µM"}
{"compound": "CCOc1c(C#N)c2c(N)ncnc2n1C1OC(CO)C(O)C1O (centres undefined)", "metric-name": "TGI", "result-value": "> 44.2 µM"}
{"compound": "COC(=O)c1c(C(=O)OC)c2c3ccccc3n(C)c2c2c1c1ccccc1n2C", "metric-name": "TGI", "result-value": "> 100 µM"}
{"compound": "CCOC(=O)C1SC(=Nc2ccc(Cl)cc2C)N=C1C (centres undefined)", "metric-name": "TGI", "result-value": "35.1 µM"}
{"compound": "N#CCCN(CCC#N)c1ccc(C(N=Nc2ccc(Cl)cc2)=Nc2ccc(F)cc2)cc1", "metric-name": "TGI", "result-value": "> 100 µM"}

----------
System: MDA-MB-435
Test: NCI tumour cell line growth inhibition, 48 h
Would you please tag the item 1 (yes) when its TGI is 20 µM or above, and 0 (no) when it is below?

{"compound": "COc1ccc(/C=C\\c2cc(OC)c(OC)c(OC)c2)c(O)c1O", "cat": "0 (no)"}
{"compound": "CC1CC(C)C2=NOS3=C2C1=NO3 (stereo not given)", "cat": "1 (yes)"}
{"compound": "O=[N+]([O-])c1nccn1CCCNCCCn1ccnc1[N+](=O)[O-]", "cat": "1 (yes)"}
{"compound": "CC(C)(C)NC/C(=C\\c1ccccc1)C(=O)c1ccccc1", "cat": "0 (no)"}
{"compound": "CSc1ccc(C2=NN(C(C)=O)C(c3ccc(F)cc3)C2)cc1 (stereo not given)", "cat": "1 (yes)"}
{"compound": "Cc1cc(NNC(=O)c2ccccc2O)nc(Nc2nc3ccccc3o2)n1", "cat": "0 (no)"}
{"compound": "COc1cc2ncn(-c3cc(OCc4ccccc4C(F)(F)F)c(C(C)=O)s3)c2cc1OC", "cat": "1 (yes)"}
{"compound": "CN(O)C(=S)c1ccccc1", "cat": "1 (yes)"}
{"compound": "CCc1nc2cc(/C=C/C(=O)NO)ccc2c(=O)n1CCc1ccc(F)cc1", "cat": "0 (no)"}

----------
Test system: PC-3 prostate
Experiment: NCI tumour cell line growth inhibition, 48 h

{"molecule": "CN1C(=O)C23CCCCC2CC1(c1ccccc1)S3 (stereo not drawn)", "subject-of-test": "PC-3 prostate", "TGI": "> 100 µM"}
{"molecule": "C=CCn1cnc2c(=O)[nH]c(Nc3ccccc3)nc21", "subject-of-test": "PC-3 prostate", "TGI": "> 100 µM"}
{"molecule": "O=C(Nc1cccc(Cl)c1)c1cc(N=Nc2ccc([N+](=O)[O-])cc2Cl)ccc1O", "subject-of-test": "PC-3 prostate", "TGI": "6.36 µM"}
{"molecule": "Cc1cc(C)n(C(=O)CSc2nnc(SCC(=O)n3nc(C)cc3C)s2)n1", "subject-of-test": "PC-3 prostate", "TGI": "> 100 µM"}
{"molecule": "CCCCCCCCCc1c(O)c(O)c(CCCCCCCCC)c(CCCCCCCCC)c1CCCCCCCCC", "subject-of-test": "PC-3 prostate", "TGI": "> 100 µM"}
{"molecule": "CC(=O)O[C@H]1C(=O)[C@@]2(C)[C@H]([C@H](OC(=O)c3ccccc3)[C@@]3(O)C[C@H](O)C(C)=C1C3(C)C)[C@]1(OC(C)=O)CO[C@@H]1C[C@@H]2O", "subject-of-test": "PC-3 prostate", "TGI": "> 100 µM"}
{"molecule": "O=C1C(=O)N(c2cccc(C(F)(F)F)c2)C(=O)C(=O)C1c1nc2ccccc2s1", "subject-of-test": "PC-3 prostate", "TGI": "> 100 µM"}
{"molecule": "C=C1NC(=O)C(CC(C(=O)C(=O)Nc2c(C)cccc2C(C)(C)C)C(=O)c2ccc3ccccc3c2)C(=O)N1 (stereo not drawn)", "subject-of-test": "PC-3 prostate", "TGI": "> 100 µM"}
{"molecule": "O=C(N/N=C(/COc1cccc(Cl)c1)N=Cc1cccnc1)c1ccncc1", "subject-of-test": "PC-3 prostate", "TGI": "> 100 µM"}
{"molecule": "COC1(CC[C@H](C)COC2OC(CO)C(O)C(O)C2O)O[C@H]2C[C@H]3[C@@H]4CC=C5C[C@@H](OC6OC(CO)C(O)C(OC7OC(CO)C(O)C(O)C7O)C6OC6OC(C)C(O)C(O)C6O)CC[C@]5(C)[C@H]4CC[C@]3(C)[C@H]2[C@@H]1C (stereo partly drawn)", "subject-of-test": "PC-3 prostate", "TGI": "16.6 µM"}
{"molecule": "CC(=O)C1CCC2C3CC=C4CC(SC(=N)N)CCC4(C)C3CCC12C (stereo not drawn)", "subject-of-test": "PC-3 prostate", "TGI": "4.2 µM"}
{"molecule": "C=C1CC(COc2ccc3c(C)cc(=O)oc3c2)(c2ccccc2)OC1=O (stereo not drawn)", "subject-of-test": "PC-3 prostate", "TGI": "5.78 µM"}
{"molecule": "COC(=O)c1c(C(=O)OC)c2c3ccccc3n(C)c2c2c1c1ccccc1n2C", "subject-of-test": "PC-3 prostate", "TGI": "> 100 µM"}
{"molecule": "CC(Oc1ccccc1Cl)C(=O)NN1C(=O)CSC1c1ccc(Cl)cc1 (stereo not drawn)", "subject-of-test": "PC-3 prostate", "TGI": "38.2 µM"}
{"molecule": "CC(C)(C)c1ccc(O)c(CN(Cc2cc(C(C)(C)C)ccc2O)C2CCCCC2)c1", "subject-of-test": "PC-3 prostate", "TGI": "46.8 µM"}
{"molecule": "CCc1nc2cc(/C=C/C(=O)NO)ccc2c(=O)n1CCc1ccc(F)cc1", "subject-of-test": "PC-3 prostate", "TGI": "> 100 µM"}
{"molecule": "NC(N)=NC(N)=Nc1ccccc1 (tested in a mixture with another compound)", "subject-of-test": "PC-3 prostate", "TGI": "> 100 µM"}
{"molecule": "CCOC(=O)c1[nH]c2nc(SC)nc(Nc3ccccc3Cl)c2c1N", "subject-of-test": "PC-3 prostate", "TGI": "37.1 µM"}
